experimental-target: CYP2D6 (Homo sapiens)
Sequence (P10635 whole entry): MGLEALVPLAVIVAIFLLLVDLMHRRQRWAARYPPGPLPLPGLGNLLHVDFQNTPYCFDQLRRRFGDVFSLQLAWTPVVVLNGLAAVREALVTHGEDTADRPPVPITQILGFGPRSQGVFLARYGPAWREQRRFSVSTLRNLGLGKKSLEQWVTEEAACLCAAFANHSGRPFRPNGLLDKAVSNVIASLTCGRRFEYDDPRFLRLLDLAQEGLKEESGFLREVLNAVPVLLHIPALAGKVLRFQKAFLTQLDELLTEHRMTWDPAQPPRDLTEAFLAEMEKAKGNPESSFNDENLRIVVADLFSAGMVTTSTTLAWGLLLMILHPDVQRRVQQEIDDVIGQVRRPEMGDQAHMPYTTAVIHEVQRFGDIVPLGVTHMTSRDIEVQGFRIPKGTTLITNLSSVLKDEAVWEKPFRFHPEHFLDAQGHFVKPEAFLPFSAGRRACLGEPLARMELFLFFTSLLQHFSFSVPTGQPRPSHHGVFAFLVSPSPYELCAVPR
experiment: In vitro CYP inhibition
Type: in vitro ADME
Set-up: dose or concentration left out as unconfirmed
condition-label: at 10 PM, read-out: CYP inhibition (2D6)
readout-name: inhibition (%)
Lab book: enter the figure in %, no units written.

### Prompt GET inhibition | system: CYP2D6 (Homo sapiens) | item: CN1CCN(C2CCC(n3nc(-c4ccc(Oc5ccccc5)cc4)c4c(N)ncnc43)CC2)CC1 (stereo not shown)
### Response 24.9

----------
experiment: Plasma protein binding
Assay type: in vitro ADME
condition-label: human, humans
readout-name: fraction unbound
Write the number on its own, no unit after it.

### Prompt Using known records, supply fraction unbound for CN1CCN(C2CCC(n3nc(-c4ccc(Oc5ccccc5)cc4)c4c(N)ncnc43)CC2)CC1 (stereo not shown) [Compound (I)]
### Response 0.043

----------
experiment: Murine pharmacokinetics (intravenous and oral)
Type: in vivo
condition-label: serum; mouse, intravenous administration (2 mg/kg); read-out: serum half-life (converted)
readout-name: half-life
Show the value, then the unit it is measured in.

### Prompt Using known records, supply half-life for CN1CCN(C2CCC(n3nc(-c4ccc(Oc5ccccc5)cc4)c4c(N)ncnc43)CC2)CC1 (stereo not shown)
### Response 11.5 h

----------
experiment: Liver microsome stability
Assay type: in vitro ADME
condition-label: rat, liver microsomes, read-out: T1/2 in liver microsomes
readout-name: half-life

### Prompt Using known records, supply half-life for CN1CCN(C2CCC(n3nc(-c4ccc(Oc5ccccc5)cc4)c4c(N)ncnc43)CC2)CC1 (stereo not shown)
### Response ≥ 1 h

----------
experiment: Murine pharmacokinetics (intravenous and oral)
Type: in vivo
condition-label: serum, po; mouse, orally at 25 mg/kg
readout-name: AUC (µM·h)
Lab book: enter the figure in µM·h, no units written.

### Prompt Using known records, supply AUC for CN1CCN(C2CCC(n3nc(-c4ccc(Oc5ccccc5)cc4)c4c(N)ncnc43)CC2)CC1 (stereo not shown)
### Response 11.4

----------
experiment: Liver microsome stability
Assay type: in vitro ADME
condition-label: human, liver microsomes, humans; read-out: half-life t1/2 with purified microsomes
readout-name: half-life
Show the value, then the unit it is measured in.

### Prompt Using known records, supply half-life for CN1CCN(C2CCC(n3nc(-c4ccc(Oc5ccccc5)cc4)c4c(N)ncnc43)CC2)CC1 (stereo not shown) [Compound (I)]
### Response 49.5 min

----------
experiment: Murine pharmacokinetics (intravenous and oral)
Type: in vivo
condition-label: mouse, serum, intravenous, 2 mg/kg; read-out: in vivo clearance rate
readout-name: clearance (mL/min/kg)
Lab book: enter the figure in mL/min/kg, no units written.

### Prompt Using known records, supply clearance for CN1CCN(C2CCC(n3nc(-c4ccc(Oc5ccccc5)cc4)c4c(N)ncnc43)CC2)CC1 (stereo not shown)
### Response 17.4

----------
experimental-target: CYP2B6 (Homo sapiens)
Sequence (P20813 1-491): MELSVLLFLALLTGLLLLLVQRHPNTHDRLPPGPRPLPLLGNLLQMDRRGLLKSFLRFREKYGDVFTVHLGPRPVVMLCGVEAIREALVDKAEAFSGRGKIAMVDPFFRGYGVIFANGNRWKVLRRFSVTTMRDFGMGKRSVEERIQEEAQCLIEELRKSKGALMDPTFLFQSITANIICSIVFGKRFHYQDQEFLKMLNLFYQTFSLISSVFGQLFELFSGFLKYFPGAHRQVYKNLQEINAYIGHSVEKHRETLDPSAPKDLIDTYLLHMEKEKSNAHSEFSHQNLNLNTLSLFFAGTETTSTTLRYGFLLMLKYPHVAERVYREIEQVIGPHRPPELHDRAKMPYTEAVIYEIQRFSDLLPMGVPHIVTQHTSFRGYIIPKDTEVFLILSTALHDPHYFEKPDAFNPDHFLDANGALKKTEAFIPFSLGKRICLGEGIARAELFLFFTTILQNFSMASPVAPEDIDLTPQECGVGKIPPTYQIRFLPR
experiment: In vitro CYP inhibition
Type: in vitro ADME
Set-up: dose or concentration left out as unconfirmed
condition-label: at 10 PM, read-out: CYP inhibition (2B6)
readout-name: inhibition
Show the value, then the unit it is measured in.

### Prompt Using known records, supply inhibition for CN1CCN(C2CCC(n3nc(-c4ccc(Oc5ccccc5)cc4)c4c(N)ncnc43)CC2)CC1 (stereo not shown) [Compound (I)]
### Response 64.5%

----------
Test system: CYP1A
experiment: In vitro CYP inhibition
Format: in vitro ADME
Set-up: dose or concentration left out as unconfirmed
condition-label: at 10 PM; read-out: CYP inhibition (1A)
readout-name: inhibition (%)
Lab book: enter the figure in %, no units written.

### Prompt Using known records, supply inhibition for CN1CCN(C2CCC(n3nc(-c4ccc(Oc5ccccc5)cc4)c4c(N)ncnc43)CC2)CC1 (stereo not shown)
### Response -27.9

----------
experiment: Liver microsome stability
Type: in vitro ADME
condition-label: human, liver microsomes, read-out: T1/2 in liver microsomes
readout-name: half-life

### Prompt Using known records, supply half-life for CN1CCN(C2CCC(n3nc(-c4ccc(Oc5ccccc5)cc4)c4c(N)ncnc43)CC2)CC1 (stereo not shown) [Compound (I)]
### Response ≥ 60 min

----------
experimental-target: CYP2C8 (Homo sapiens)
Sequence (P10632 1-490): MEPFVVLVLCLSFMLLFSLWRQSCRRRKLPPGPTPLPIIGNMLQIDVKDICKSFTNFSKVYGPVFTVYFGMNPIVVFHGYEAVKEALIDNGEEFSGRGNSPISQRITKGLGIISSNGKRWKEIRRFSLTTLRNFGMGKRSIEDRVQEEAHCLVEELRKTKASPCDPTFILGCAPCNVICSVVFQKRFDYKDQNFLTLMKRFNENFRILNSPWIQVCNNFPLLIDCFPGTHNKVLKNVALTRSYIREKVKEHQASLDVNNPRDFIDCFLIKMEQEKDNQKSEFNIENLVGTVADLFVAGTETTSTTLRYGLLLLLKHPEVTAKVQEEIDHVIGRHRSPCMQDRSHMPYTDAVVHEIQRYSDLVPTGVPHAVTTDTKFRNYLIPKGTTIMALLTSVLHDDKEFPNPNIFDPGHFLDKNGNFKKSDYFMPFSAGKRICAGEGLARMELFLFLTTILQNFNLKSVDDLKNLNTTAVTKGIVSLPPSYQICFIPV
experiment: In vitro CYP inhibition
Assay type: in vitro ADME
Set-up: dose or concentration left out as unconfirmed
condition-label: at 10 PM, read-out: CYP inhibition (2C8)
readout-name: inhibition (%)
Lab book: enter the figure in %, no units written.

### Prompt Using known records, supply inhibition for CN1CCN(C2CCC(n3nc(-c4ccc(Oc5ccccc5)cc4)c4c(N)ncnc43)CC2)CC1 (stereo not shown)
### Response -3.8

----------
experiment: Murine pharmacokinetics (intravenous and oral)
Assay type: in vivo
condition-label: serum, po; mouse, orally at 10 mg/kg
readout-name: AUC (µM·h)
Lab book: enter the figure in µM·h, no units written.

### Prompt Using known records, supply AUC for CN1CCN(C2CCC(n3nc(-c4ccc(Oc5ccccc5)cc4)c4c(N)ncnc43)CC2)CC1 (stereo not shown) [Compound (I)]
### Response 5.2

----------
experiment: Plasma protein binding
Assay type: in vitro ADME
condition-label: dog, dogs
readout-name: fraction unbound
Write the number on its own, no unit after it.

### Prompt Using known records, supply fraction unbound for CN1CCN(C2CCC(n3nc(-c4ccc(Oc5ccccc5)cc4)c4c(N)ncnc43)CC2)CC1 (stereo not shown) [Compound (I)]
### Response 0.05

----------
experiment: Liver microsome stability
Assay type: in vitro ADME
condition-label: rat, liver microsomes, rats; read-out: half-life t1/2 with purified microsomes
readout-name: half-life

### Prompt Using known records, supply half-life for CN1CCN(C2CCC(n3nc(-c4ccc(Oc5ccccc5)cc4)c4c(N)ncnc43)CC2)CC1 (stereo not shown)
### Response > 2 h

----------
experimental-target: UniProt:P11712
Sequence (P11712 whole entry): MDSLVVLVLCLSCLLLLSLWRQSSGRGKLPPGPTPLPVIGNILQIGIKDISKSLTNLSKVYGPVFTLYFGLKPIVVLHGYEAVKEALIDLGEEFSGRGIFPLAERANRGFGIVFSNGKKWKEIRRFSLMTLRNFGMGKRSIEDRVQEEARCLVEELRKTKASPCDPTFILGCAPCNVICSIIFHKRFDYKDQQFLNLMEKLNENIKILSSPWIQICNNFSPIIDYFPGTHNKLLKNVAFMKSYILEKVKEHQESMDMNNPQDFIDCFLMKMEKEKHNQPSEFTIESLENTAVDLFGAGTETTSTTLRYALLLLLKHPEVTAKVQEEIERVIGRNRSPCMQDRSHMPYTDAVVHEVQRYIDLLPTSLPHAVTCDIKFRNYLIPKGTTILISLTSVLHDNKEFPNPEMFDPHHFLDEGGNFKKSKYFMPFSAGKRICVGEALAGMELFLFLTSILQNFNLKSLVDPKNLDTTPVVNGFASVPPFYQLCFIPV
experiment: In vitro CYP inhibition
Assay type: in vitro ADME
Parameters: dose or concentration left out as unconfirmed
condition-label: at 10 PM, read-out: CYP inhibition (2C9)
readout-name: inhibition

### Prompt Using known records, supply inhibition for CN1CCN(C2CCC(n3nc(-c4ccc(Oc5ccccc5)cc4)c4c(N)ncnc43)CC2)CC1 (stereo not shown)
### Response -10.9%

----------
experiment: Liver microsome stability
Assay type: in vitro ADME
condition-label: mouse, liver microsomes, read-out: T1/2 in liver microsomes
readout-name: half-life

### Prompt Using known records, supply half-life for CN1CCN(C2CCC(n3nc(-c4ccc(Oc5ccccc5)cc4)c4c(N)ncnc43)CC2)CC1 (stereo not shown)
### Response ≥ 1 h

----------
experiment: Murine pharmacokinetics (intravenous and oral)
Type: in vivo
condition-label: serum, po; mouse, orally at 10 mg/kg and 25 mg/kg; read-out: T1/2
readout-name: half-life

### Prompt Using known records, supply half-life for CN1CCN(C2CCC(n3nc(-c4ccc(Oc5ccccc5)cc4)c4c(N)ncnc43)CC2)CC1 (stereo not shown)
### Response 15.1 to 16.9 h

----------
experimental-target: CYP2C19 (Homo sapiens, UniProt P33261)
Sequence (P33261 whole entry): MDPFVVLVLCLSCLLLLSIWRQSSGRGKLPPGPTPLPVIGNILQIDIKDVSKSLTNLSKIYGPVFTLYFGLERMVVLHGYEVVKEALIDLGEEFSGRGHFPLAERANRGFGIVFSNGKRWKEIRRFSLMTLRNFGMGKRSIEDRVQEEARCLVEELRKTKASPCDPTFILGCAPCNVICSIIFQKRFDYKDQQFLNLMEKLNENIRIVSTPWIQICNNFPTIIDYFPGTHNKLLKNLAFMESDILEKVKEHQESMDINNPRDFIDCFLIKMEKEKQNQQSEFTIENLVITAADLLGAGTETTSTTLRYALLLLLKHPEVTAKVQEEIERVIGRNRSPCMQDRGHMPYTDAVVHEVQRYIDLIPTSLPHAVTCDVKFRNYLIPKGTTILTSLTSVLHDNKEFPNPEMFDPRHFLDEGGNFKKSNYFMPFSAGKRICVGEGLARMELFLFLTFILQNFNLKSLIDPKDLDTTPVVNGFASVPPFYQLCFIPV
experiment: In vitro CYP inhibition
Format: in vitro ADME
Parameters: dose or concentration left out as unconfirmed
condition-label: at 10 PM, read-out: CYP inhibition (2C19)
readout-name: inhibition (%)
Lab book: enter the figure in %, no units written.

### Prompt GET inhibition | system: CYP2C19 (Homo sapiens, UniProt P33261) | item: CN1CCN(C2CCC(n3nc(-c4ccc(Oc5ccccc5)cc4)c4c(N)ncnc43)CC2)CC1 (stereo not shown)
### Response 0.8
